# test system: protein kinase B (PKB)
# assay details: cell-based or functional assay
Numbered stars: 1 amine (or outer) side, 2 acyl side, 3 side chain; on linkers, the order of the positions; unused ones are H or OH. Square brackets hold non-standard residues; d marks the D form. * marks the point of attachment. Cholesteryloxycarbonyl = CC(C)CCC[C@@H](C)[C@H]1CC[C@H]2[C@@H]3CC=C4C[C@@H](OC(=O)*)CC[C@]4(C)[C@H]3CC[C@]12C; Ser(Me) = COC[C@H](N[*:1])C(=O)[*:2]; hLeu = CC(C)CC[C@H](N)C(=O)O; Orn = NCCC[C@H](N)C(=O)O; Nva = CCC[C@H](N)C(=O)O; Dap = NC[C@H](N)C(=O)O
IC50, in vitro kinase assay PKB overview

Recorded IC50, in vitro kinase assay PKB, per entry:
Cholesteryloxycarbonyl-KKKRPR[Nva]Y[Dap][hLeu]-NH2 (SMILES CCC[C@H](NC(=O)[C@H](CCCNC(=N)N)NC(=O)[C@@H]1CCCN1C(=O)[C@H](CCCNC(=N)N)NC(=O)[C@H](CCCCN)NC(=O)[C@H](CCCCN)NC(=O)[C@H](CCCCN)NC(=O)O[C@H]1CC[C@@]2(C)C(=CC[C@H]3[C@@H]4CC[C@H]([C@H](C)CCCC(C)C)[C@@]4(C)CC[C@@H]32)C1)C(=O)N[C@@H](Cc1ccc(O)cc1)C(=O)N[C@@H](CN)C(=O)N[C@@H](CCC(C)C)C(N)=O) [PTR 6344]    300 nM
XPRXYXX (Nva, Dap, Hol; C-terminal NH2) [PTR 6366]    > 10000 nM
H-[Orn]P[Orn][Nva]Y[Dap][hLeu]-NH2 (SMILES CCC[C@H](NC(=O)[C@H](CCCN)NC(=O)[C@@H]1CCCN1C(=O)[C@@H](N)CCCN)C(=O)N[C@@H](Cc1ccc(O)cc1)C(=O)N[C@@H](CN)C(=O)N[C@@H](CCC(C)C)C(N)=O) [PTR 6384]    > 10000 nM

Q: Entry Cholesteryloxycarbonyl-[dK][dK][dK]RPR[Nva]Y[Ser(Me)][hLeu]-NH2 (SMILES CCC[C@H](NC(=O)[C@H](CCCNC(=N)N)NC(=O)[C@@H]1CCCN1C(=O)[C@H](CCCNC(=N)N)NC(=O)[C@@H](CCCCN)NC(=O)[C@@H](CCCCN)NC(=O)[C@@H](CCCCN)NC(=O)O[C@H]1CC[C@@]2(C)C(=CC[C@H]3[C@@H]4CC[C@H]([C@H](C)CCCC(C)C)[C@@]4(C)CC[C@@H]32)C1)C(=O)N[C@@H](Cc1ccc(O)cc1)C(=O)N[C@@H](COC)C(=O)N[C@@H](CCC(C)C)C(N)=O) [PTR 6348] has what IC50, in vitro kinase assay PKB?
A: 200 nM

Q: Form field: reported IC50, in vitro kinase assay PKB of Cholesteryloxycarbonyl-[Orn]PR[Nva]Y[Dap][hLeu]-NH2 (SMILES CCC[C@H](NC(=O)[C@H](CCCNC(=N)N)NC(=O)[C@@H]1CCCN1C(=O)[C@H](CCCN)NC(=O)O[C@H]1CC[C@@]2(C)C(=CC[C@H]3[C@@H]4CC[C@H]([C@H](C)CCCC(C)C)[C@@]4(C)CC[C@@H]32)C1)C(=O)N[C@@H](Cc1ccc(O)cc1)C(=O)N[C@@H](CN)C(=O)N[C@@H](CCC(C)C)C(N)=O) [PTR 6382]
A: 360 nM

The reported numbers originate from patent US20070078092A1.
